Where these numbers come from: patent US11279733B2

- Tested on: K. pneumoniae GN_106, PmxR
- Measurement Context: GN 106, PmxR
Positions of bridges follow the written chain, without caps; N, C: chain ends. Non-standard residues stand in square brackets, D forms with d. Residues, ends and D or L forms follow the SMILES beside them. *: point of attachment. dPhe(4-NO2) = N[C@H](Cc1ccc([N+](=O)[O-])cc1)C(=O)O; Benzoyl(4-Ph) = O=C(c1ccc(-c2ccccc2)cc1)*; Decanoyl(3R-OH) = CCCCCCC[C@@H](O)CC(=O)*; Decanoyl = CCCCCCCCCC(=O)*; dDab = NCC[C@@H](N)C(=O)O; Dab = NCC[C@H](N)C(=O)O
Property: MIC K. pneumoniae GN_106, PmxR (µg/mL)
Express your answer in µg/mL, writing the number without its unit.

[
  {
    "Compound": "CC(C)C[C@@H]1NC(=O)[C@H](CCN)NC(=O)[C@H](CCN)NC(=O)[C@H](Cc2ccccc2)NC(=O)[C@@H](CC(C)C)NC(=O)[C@H](CCN)NC(=O)[C@@H](NC(=O)[C@@H](CCN)NC(=O)c2ccc(-c3ccccc3)cc2)CCNC1=O [compound 6518] ({Benzoyl(4-Ph)}-[dDab][Dab][Dab][dL]F[Dab][Dab]L; lactam 2-C)",
    "Property": "MIC K. pneumoniae GN_106, PmxR",
    "Numeric Value": 32
  },
  {
    "Compound": "CCCCCCC[C@@H](O)CC(=O)N[C@H](Cc1ccc([N+](=O)[O-])cc1)C(=O)N[C@H]1CCNC(=O)[C@H](CC(C)C)NC(=O)[C@H](CCN)NC(=O)[C@H](CCN)NC(=O)[C@H](CC(C)C)NC(=O)[C@@H](Cc2ccccc2)NC(=O)[C@H](CCN)NC1=O [compound 6448] ({Decanoyl(3R-OH)}-[dPhe(4-NO2)][Dab][Dab][dF]L[Dab][Dab]L; lactam 2-C)",
    "Property": "MIC K. pneumoniae GN_106, PmxR",
    "Numeric Value": 4
  }
]

Proceeding to the next compound to report its MIC K. pneumoniae GN_106, PmxR.
Query block: Param item = CCCCCCCCCC(=O)N[C@H](CCN)C(=O)N[C@H]1CCNC(=O)[C@H](CC(C)C)NC(=O)[C@H](CCN)NC(=O)[C@H](CCN)NC(=O)[C@H](CC(C)C)NC(=O)[C@@H](Cc2ccccc2)NC(=O)[C@H](CCN)NC1=O [compound 5017] (Decanoyl-[dDab][Dab][Dab][dF]L[Dab][Dab]L; lactam 2-C) ; retrieve measured MIC K. pneumoniae GN_106, PmxR.
Result block: 16

====

- Tested on: K. pneumoniae GN_106, PmxR
- Measurement Context: GN 106, PmxR
Positions of bridges follow the written chain, without caps; N, C: chain ends. Non-standard residues stand in square brackets, D forms with d. Residues, ends and D or L forms follow the SMILES beside them. *: point of attachment. Decanoyl(3R-OH) = CCCCCCC[C@@H](O)CC(=O)*; Nle = CCCC[C@H](N)C(=O)O; dDap = NC[C@@H](N)C(=O)O; Dab = NCC[C@H](N)C(=O)O
Hi! Could you tag entries with MIC K. pneumoniae GN_106, PmxR below 8 µg/mL as MET, and those at or above as NOT MET? Much appreciated.

Query block: Is 8 µg/mL strictly greater than the compound's reported MIC K. pneumoniae GN_106, PmxR? compound: CCCCCCC[C@@H](O)CC(=O)N[C@H](CN)C(=O)N[C@H]1CCNC(=O)[C@H](CC(C)C)NC(=O)[C@H](CCN)NC(=O)[C@H](CCN)NC(=O)[C@H](CCCC)NC(=O)[C@@H](Cc2ccccc2)NC(=O)[C@H](CCN)NC1=O [compound 9294] ({Decanoyl(3R-OH)}-[dDap][Dab][Dab][dF][Nle][Dab][Dab]L; lactam 2-C)
Result block: MET

====

Measured MIC K. pneumoniae GN_106, PmxR, listed per entry for reference.
- Test system: K. pneumoniae GN_106, PmxR
- Measurement Context: GN 106, PmxR
Positions of bridges follow the written chain, without caps; N, C: chain ends. Non-standard residues stand in square brackets, D forms with d. Residues, ends and D or L forms follow the SMILES beside them. *: point of attachment. Decanoyl(3R-OH) = CCCCCCC[C@@H](O)CC(=O)*; dBip = N[C@H](Cc1ccc(-c2ccccc2)cc1)C(=O)O; Phe(4-NH2) = Nc1ccc(C[C@H](N)C(=O)O)cc1; dDab = NCC[C@@H](N)C(=O)O; Dab = NCC[C@H](N)C(=O)O; Dap = NC[C@H](N)C(=O)O
Express your answer in µg/mL, writing the number without its unit.

Query block: Param item = CCCCCCC[C@@H](O)CC(=O)N[C@H](CCN)C(=O)N[C@H]1CCNC(=O)[C@H](CC(C)C)NC(=O)[C@H](Cc2ccc(N)cc2)NC(=O)[C@H](CCN)NC(=O)[C@H](CC(C)C)NC(=O)[C@@H](Cc2ccccc2)NC(=O)[C@H](CCN)NC1=O [compound 8644] ({Decanoyl(3R-OH)}-[dDab][Dab][Dab][dF]L[Dab][Phe(4-NH2)]L; lactam 2-C) ; retrieve measured MIC K. pneumoniae GN_106, PmxR.
Result block: 8

Query block: Param item = CCCCCCC[C@@H](O)CC(=O)N[C@@H](CCN)C(=O)N[C@H]1CCNC(=O)[C@H](CC(C)C)NC(=O)[C@H](CN)NC(=O)[C@H](CCN)NC(=O)[C@H](CC(C)C)NC(=O)[C@@H](Cc2ccc(-c3ccccc3)cc2)NC(=O)[C@H](CCN)NC1=O [compound 5565] ({Decanoyl(3R-OH)}-[Dab][Dab][Dab][dBip]L[Dab][Dap]L; lactam 2-C) ; retrieve measured MIC K. pneumoniae GN_106, PmxR.
Result block: 16

====

- System: E. coli ATCC 25922
- Measurement Context: ATCC 25922
Positions of bridges follow the written chain, without caps; N, C: chain ends. Non-standard residues stand in square brackets, D forms with d. Residues, ends and D or L forms follow the SMILES beside them. *: point of attachment. Decanoyl(3R-OH) = CCCCCCC[C@@H](O)CC(=O)*; dDab = NCC[C@@H](N)C(=O)O; Dab = NCC[C@H](N)C(=O)O
Property: MIC E. coli ATCC 25922 (µg/mL)
Express your answer in µg/mL, writing the number without its unit.

[
  {
    "Molecule": "CCCCCCC[C@@H](O)CC(=O)N[C@H](CCN)C(=O)N[C@H]1CCNC(=O)[C@H](CC(C)C)NC(=O)[C@H](CCCNC(=N)N)NC(=O)[C@H](CCN)NC(=O)[C@H](CC(C)C)NC(=O)[C@@H](Cc2ccccc2)NC(=O)[C@H](CCN)NC1=O [compound 8643] ({Decanoyl(3R-OH)}-[dDab][Dab][Dab][dF]L[Dab]RL; lactam 2-C)",
    "Test Target": "E. coli ATCC 25922",
    "MIC E. coli ATCC 25922 [µg/mL]": 1
  },
  {
    "Molecule": "CCCCCCC[C@@H](O)CC(=O)N[C@H](CO)C(=O)N[C@H]1CCNC(=O)[C@H]([C@@H](C)O)NC(=O)[C@H](CCN)NC(=O)[C@H](CCN)NC(=O)[C@H](CC(C)C)NC(=O)[C@@H](Cc2ccccc2)NC(=O)[C@H](CCN)NC1=O [compound 754] ({Decanoyl(3R-OH)}-[dS][Dab][Dab][dF]L[Dab][Dab]T; lactam 2-C)",
    "Test Target": "E. coli ATCC 25922",
    "MIC E. coli ATCC 25922 [µg/mL]": 32
  }
]

Proceeding to the next molecule to report its MIC E. coli ATCC 25922.
Query block: Param item = CCCCCCC[C@@H](O)CC(=O)N[C@H](CCN)C(=O)N[C@H]1CCCCNC(=O)[C@H](CC(C)C)NC(=O)[C@H](CCN)NC(=O)[C@H](CCN)NC(=O)[C@H](CC(C)C)NC(=O)[C@@H](Cc2ccccc2)NC(=O)[C@H](CCN)NC1=O [compound 5382] ({Decanoyl(3R-OH)}-[dDab]K[Dab][dF]L[Dab][Dab]L; lactam 2-C) ; retrieve measured MIC E. coli ATCC 25922.
Result block: 4

====

- Tested on: E. coli ATCC 25922
- Measurement Context: ATCC 25922
Positions of bridges follow the written chain, without caps; N, C: chain ends. Non-standard residues stand in square brackets, D forms with d. Residues, ends and D or L forms follow the SMILES beside them. *: point of attachment. Cholyl = C[C@H](CCC(=O)*)[C@H]1CC[C@H]2[C@@H]3[C@H](O)C[C@@H]4C[C@H](O)CC[C@]4(C)[C@H]3C[C@H](O)[C@]12C; Decanoyl(3R-OH) = CCCCCCC[C@@H](O)CC(=O)*; hPhe = N[C@@H](CCc1ccccc1)C(=O)O; dDab = NCC[C@@H](N)C(=O)O; Dab = NCC[C@H](N)C(=O)O
Measured MIC E. coli ATCC 25922, listed per entry for reference.
Express your answer in µg/mL, writing the number without its unit.

[
  {
    "Compound": "CCCCCCC[C@@H](O)CC(=O)N[C@H](CCN)C(=O)N[C@H]1CCNC(=O)[C@H](CCc2ccccc2)NC(=O)[C@H](CCN)NC(=O)[C@H](CCN)NC(=O)[C@H](CC(C)C)NC(=O)[C@@H](Cc2ccccc2)NC(=O)[C@H](CCN)NC1=O [compound 8913] ({Decanoyl(3R-OH)}-[dDab][Dab][Dab][dF]L[Dab][Dab][hPhe]; lactam 2-C)",
    "Test Target": "E. coli ATCC 25922",
    "U": "µg/mL",
    "MIC E. coli ATCC 25922": 2
  }
]

Proceeding to the next compound to report its MIC E. coli ATCC 25922.
Query block: Param item = CC(C)C[C@@H]1NC(=O)[C@H](CCN)NC(=O)[C@H](CCN)NC(=O)[C@H](CC(C)C)NC(=O)[C@@H](Cc2ccccc2)NC(=O)[C@H](CCN)NC(=O)[C@@H](NC(=O)[C@@H](CCN)NC(=O)CC[C@@H](C)[C@H]2CC[C@H]3[C@@H]4[C@H](O)C[C@@H]5C[C@H](O)CC[C@]5(C)[C@H]4C[C@H](O)[C@]23C)CCNC1=O [compound 5016] (Cholyl-[dDab][Dab][Dab][dF]L[Dab][Dab]L; lactam 2-C) ; retrieve measured MIC E. coli ATCC 25922.
Result block: 8
